test system: RXF 393; experiment: NCI tumour cell line growth inhibition, 48 h
The source made the active and inactive calls. No stated cut-off is given here; in the data, active = GI50 up to about 1.1 µM and inactive = higher. Where a SMILES comes first, the peptide text is derived from it. The star is where a group is joined. Boc = CC(C)(C)OC(=O)*
Give your call using only these classes: active, inactive

Worked examples, 3 compounds total:
Query :: GET /call?item= CC(NC(=O)C(NC(=O)OC(C)(C)C)C(C)C)C(=O)NCC(=O)O (stereo not drawn) (Boc-Val-Ala-Gly-OH; configuration not given here) returns the recorded outcome of this test.
Result :: inactive

Query :: GET /call?item= O=C(O)C(O)C(O)C(O)C(O)c1nc2ccccc2s1 (stereo not drawn) returns the recorded outcome of this test.
Result :: inactive

Query :: GET /call?item= `COCCN(CCOC)C(=O)COc1c2cc(C(C)(C)C)cc1Cc1cc(C(C)(C)C)cc(c1OCC(=O)N(CCOC)CCOC)Cc1cc(C(C)(C)C)cc(c1OCC(=O)N(CCOC)CCOC)Cc1cc(C(C)(C)C)cc(c1OCC(=O)N(CCOC)CCOC)Cc1cc(C(C)(C)C)cc(c1OCC(=O)N(CCOC)CCOC)C2` returns the recorded outcome of this test.
Result :: active

More entries:
Query :: GET /call?item= `Brc1ccc2[nH]cc([C@H]3CN[C@@H](c4c[nH]c5ccc(Br)cc45)CN3)c2c1` returns the recorded outcome of this test.
Result :: inactive

Query :: GET /call?item= `C[C@H]1C/C=C/[C@H]2[C@@H]3O[C@]3(C)[C@@H](C)[C@H]3[C@H](Cc4ccccc4)NC(=O)[C@]32OC(=O)O/C=C/[C@@](C)(O)C1=O` returns the recorded outcome of this test.
Result :: active

Query :: GET /call?item= COC(=O)[C@]1(c2cc3ccccc3n2S(=O)(=O)c2ccccc2)CC2CN(C(=O)OCc3ccccc3)C1C1OC(C)(C)OC21 (stereo partly drawn) returns the recorded outcome of this test.
Result :: inactive

Query :: GET /call?item= COC(OC)C1OC(CO)C(n2ccc(N)nc2=O)C1O (stereo not drawn) returns the recorded outcome of this test.
Result :: inactive

Query :: GET /call?item= `COC(OC)[C@@H]1OC[C@@H](O)[C@@H]1n1cnc2c(N)ncnc21` returns the recorded outcome of this test.
Result :: inactive

Query :: GET /call?item= `S=C(N/N=C(\C(=N/NC(=S)N1CCCCC1)c1ccccn1)c1ccccn1)N1CCCCC1` returns the recorded outcome of this test.
Result :: inactive

Query :: GET /call?item= `CC1(C)N=c2c(ncn2-c2ccccc2)=C(C(N)=O)N1` returns the recorded outcome of this test.
Result :: inactive

Query :: GET /call?item= `O=C1/C(=C/c2ccc(O)c(O)c2)CCC/C1=C\c1ccc(O)c(O)c1` returns the recorded outcome of this test.
Result :: inactive

Query :: GET /call?item= `NC(=O)NNC(=O)c1nc[nH]c1[N+](=O)[O-]` returns the recorded outcome of this test.
Result :: inactive

Query :: GET /call?item= CC1CCCc2c(-c3ccc(Cl)cc3)nc(N)c(C#N)c21 (stereo not drawn) returns the recorded outcome of this test.
Result :: inactive

Query :: GET /call?item= O=C(O)C1(CC(CCCN2CCCCC2)c2ccccc2)CCCC1 (stereo not drawn) returns the recorded outcome of this test.
Result :: inactive

Query :: GET /call?item= `Cc1ccc(C(C)C)c(OCC(=O)N/N=C/c2c[nH]c3ccc(Br)cc23)c1` returns the recorded outcome of this test.
Result :: inactive

Query :: GET /call?item= `COc1cc(C(=O)N(C)N(C)C)cc(OC)c1OC` returns the recorded outcome of this test.
Result :: inactive

Query :: GET /call?item= COc1ccccc1/C=C1\CCC(CN(C)C)C1=O (stereo not drawn) returns the recorded outcome of this test.
Result :: inactive

Query :: GET /call?item= O=C1NC(c2cccc3ccccc23)Nc2ccc(O)cc21 (stereo not drawn) returns the recorded outcome of this test.
Result :: inactive

----------
Below: a set of entries, each annotated with reported GI50.
tested on: RPMI-8226; test: NCI tumour cell line growth inhibition, 48 h
The source made the active and inactive calls. No stated cut-off is given here; in the data, active = GI50 up to about 1.1 µM and inactive = higher.

Consider the following illustrative entries.
Query :: // output GI50; input COc1ccccc1/C=C1\CCC(CN(C)C)C1=O (stereo not given) ; system RPMI-8226
Result :: 2.05 µM (inactive)

Query :: // output GI50; input `CC(C)(C)OC(=O)NCC(c1c[nH]c2cc(Br)ccc12)c1c[nH]c2cc(Br)ccc12` ; system RPMI-8226
Result :: 32.7 µM (inactive)

More entries:
Query :: // output GI50; input O=C(O)c1cc(Cl)cc2c1NC1(N2)C(=O)Nc2ccccc21 (stereo not given) ; system RPMI-8226
Result :: > 100 µM (inactive)

Query :: // output GI50; input `COC(=O)c1ccccc1OCc1cc(=O)oc2ccc(C)cc12` ; system RPMI-8226
Result :: > 63.4 µM (inactive)

Query :: // output GI50; input `CC[C@H](C)C1=C(O)[N@+]2([O-])Oc3ccc(-c4c(O)c(O)c(-c5ccc(O)cc5)c(OC(C)=O)c4OC(C)=O)cc3O[C@]2([C@@H](C)CC)C(=O)N1O` ; system RPMI-8226
Result :: 10.6 µM (inactive)

----------
system: KM12; assay: NCI tumour cell line growth inhibition, 48 h
Calls of active or inactive are those of the source. Cut-off read from the data, not from the text of the source: active = GI50 up to about 1.1 µM and inactive = higher.
Quantity: GI50

Consider the following illustrative entries.
Query :: Please give measured GI50 of the following entry: `CCOC(=O)c1ccc(/N=C2/C(=S)N(c3ccc(C(=O)OCC)cc3)C(=N)N2/N=C/c2ccccc2)cc1`
Result :: 14.7 µM (inactive)

Query :: Please give measured GI50 of the following entry: `COc1ccc(N[C@H](CSc2ccc(C)cc2)c2ccc(F)cc2)cc1`
Result :: > 100 µM (inactive)

Query :: Please give measured GI50 of the following entry: CC1(C)CC(=O)C2=C(C1)C(c1ccccc1Cl)C1C(=O)CC(C)(C)CC1(O)O2 (stereo not given)
Result :: > 100 µM (inactive)

Query :: Please give measured GI50 of the following entry: `Cc1ccc(-c2n[nH]c(=O)[nH]2)cc1`
Result :: > 100 µM (inactive)

Now for the compound whose GI50 we want.
Query :: Please give measured GI50 of the following entry: `O=C1CN(c2ccc(Cl)cc2)C(=O)CN1CCN1CC(=O)N(c2ccc(Cl)cc2)CC1=O`
Result :: > 100 µM (inactive)

----------
system: DLD-1; test: NCI tumour cell line growth inhibition, 48 h
Active and inactive are the calls of the source. Rule as the data show it: active = GI50 up to about 1.1 µM and inactive = higher.
Give your call using only these classes: True for active, False for inactive

Worked examples, 3 compounds total:
Query :: GET /call?item= COC1(OC)CC2C(=O)N(Cc3ccccc3)C1CC2S(=O)(=O)c1ccccc1 (stereo unspecified) returns the recorded outcome of this test.
Result :: False

Query :: GET /call?item= `COc1cc2ccc3c4cc(OC)c(OC(C)C)cc4cnc3c2cc1OC` returns the recorded outcome of this test.
Result :: False

Query :: GET /call?item= `Cn1cc(NC(=O)c2cc(NC(=O)CCCCCCCCC(=O)Nc3cc(C(=O)Nc4cc(C(=O)NCCC(N)N)n(C)c4)n(C)c3)cn2C)cc1C(=O)NCCC(=N)N` returns the recorded outcome of this test.
Result :: False

More entries:
Query :: GET /call?item= `Cc1cc(C)n(-c2ccnc3cc(Cl)ccc23)n1` returns the recorded outcome of this test.
Result :: False

Query :: GET /call?item= CCCCCCC(/C=N/O)C(C)(O)CCC (stereo unspecified) returns the recorded outcome of this test.
Result :: False

Query :: GET /call?item= `C[Si](C)(C)C(CCCCSc1ccccc1)(Sc1ccccc1)Sc1ccccc1` returns the recorded outcome of this test.
Result :: False

Query :: GET /call?item= `COC1=CCC=C(C[C@@H]2NCCc3cc(OC)c(OC)cc32)C1` returns the recorded outcome of this test.
Result :: False

Query :: GET /call?item= `CSC(=N)NNC(=O)CCC(=O)Nc1ccccc1C(F)(F)F` returns the recorded outcome of this test.
Result :: False

Query :: GET /call?item= `O=Cc1ccc(CCl)cc1` returns the recorded outcome of this test.
Result :: False

Query :: GET /call?item= `O=C(CC(=O)Nc1ccc(Cl)cc1)NNCC(=O)Nc1nc(-c2ccccc2)cs1` returns the recorded outcome of this test.
Result :: False

Query :: GET /call?item= N#CC(NNC(=O)Cc1ccccc1)c1ccc(O)cc1 (stereo unspecified) returns the recorded outcome of this test.
Result :: False

Query :: GET /call?item= CCOc1ccc(NC(=O)CC2SC(Nc3ccc(C)cc3C)=NC2=O)cc1 (stereo unspecified) returns the recorded outcome of this test.
Result :: False

Query :: GET /call?item= `CN(C)[C@@H]1C(O)=C(C(=O)NCNCCCC(=O)O)C(=O)[C@@]2(O)C(O)=C3C(=O)c4c(O)cccc4[C@@](C)(O)[C@H]3C[C@@H]12` returns the recorded outcome of this test.
Result :: False

Query :: GET /call?item= `Cn1nc(-c2ccccc2)c(C(=O)/C=C/c2ccccc2)c(N2CCCCC2)c1=O` returns the recorded outcome of this test.
Result :: False

Query :: GET /call?item= `COc1ccc(CC(=O)NCCc2ccc(OC)c(OC)c2OC)cc1` returns the recorded outcome of this test.
Result :: False
